Target: S1P2 (Homo sapiens)
Construct: Flag; expressed in transfected cells; host or cells: Chinese hamster ovary (CHO) cells, doxycycline-inducible (CHO-S1P2-FL / CHO-S1PR2 FL)
Experiment: GLISA RhoA activation - antagonist assay
Assay type: cell-based
Settings: 1 μM compound, CHO-S1P2-FL cells
propertyLabel: inhibition at 1 µM (%)

>>> recordedvalue("Cc1nnc(Cn2c(C)cc(C(=O)C(C)n3cc(Br)ccc3=O)c2C)o1 (stereo not drawn)")
10
>>> recordedvalue("Cc1cc(C(=O)Cn2cc(I)ccc2=O)c(C)n1Cc1ccccc1")
57
>>> recordedvalue("Cc1cc(Cn2c(C)cc(C(=O)C(C)n3cc(Br)ccc3=O)c2C)no1 (stereo not drawn)")
32
>>> recordedvalue("Cc1c(C(=O)Cn2ccc(Br)cc2=O)cnn1Cc1ccccc1")
15
>>> recordedvalue("O=C(Cn1cc(Br)ccc1=O)N1CCC(c2ccc(F)cc2)C1 (stereo not drawn)")
42
>>> recordedvalue("COc1ccc(Cn2c(C)cc(C(=O)C(C)n3cc(Br)ccc3=O)c2C)cc1 (stereo not drawn)")
18
>>> recordedvalue("Cc1cc(C(=O)C(C)n2cc(Br)ccc2=O)c(C)n1Cc1ccc(F)cc1 (stereo not drawn)")
76

---

Molecular target: S1P2 (Homo sapiens)
Construct: Flag
Experiment: GLISA RhoA activation - antagonist assay
Conditions: CHO-S1P2-FL cells, 1 hour compound incubation, then for 5 min
# key: entry, value: IC50
propertyLabel: IC50 (nM)

>>> recordedvalue("Cc1c(C(=O)Cn2cc(Br)ccc2=O)cnn1Cc1ccccc1")
4.9
>>> recordedvalue("C=C(F)c1ccc(=O)n(CC(=O)c2cnn(Cc3ccccc3)c2C)c1")
82

---

Biological target: S1P2 (Homo sapiens, UniProt O95136)
Construct: Flag; expressed in transfected cells; host or cells: Chinese hamster ovary (CHO) cells, doxycycline-inducible (CHO-S1P2-FL / CHO-S1PR2 FL)
Sequence (O95136 whole entry, species assumed): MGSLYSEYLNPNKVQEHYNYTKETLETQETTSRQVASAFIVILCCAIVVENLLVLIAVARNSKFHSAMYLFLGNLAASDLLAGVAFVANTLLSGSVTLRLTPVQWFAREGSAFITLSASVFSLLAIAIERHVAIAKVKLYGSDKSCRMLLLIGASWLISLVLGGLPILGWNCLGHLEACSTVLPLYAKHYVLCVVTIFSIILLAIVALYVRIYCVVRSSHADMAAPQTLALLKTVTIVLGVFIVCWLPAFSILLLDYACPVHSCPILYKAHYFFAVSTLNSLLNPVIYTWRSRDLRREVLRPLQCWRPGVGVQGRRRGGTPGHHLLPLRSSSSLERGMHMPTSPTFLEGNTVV
Experiment: GLISA RhoA activation - antagonist assay
Type: cell-based
Conditions: 1 μM compound, CHO-S1P2-FL cells
# key: entry, value: inhibition at 1 µM
propertyLabel: inhibition at 1 µM (%)

>>> recordedvalue("Cc1cc(Br)cn(CC(=O)c2cnn(Cc3ccccc3)c2C)c1=O [Example 39]")
69
>>> recordedvalue("Cc1nc(C(=O)Cn2cc(Br)ccc2=O)c(C)n1Cc1ccc(F)cc1 [Compound 30]")
64
>>> recordedvalue("Cc1cc(C(=O)C(C)n2cc(Br)ccc2=O)c(C)n1Cc1cccc(C(F)F)c1 (centres unmarked) [Compound 21]")
42

---

Target: UniProtKB O95136
Assay: FLIPR calcium activation - antagonist assay
Settings: CHO-S1PR2 FL cells, 1 hour compound incubation
# key: entry, value: IC50
propertyLabel: IC50

>>> recordedvalue("Cc1cc(Br)cn(CC(=O)c2cnn(Cc3ccccc3)c2C)c1=O")
"364 nM"
>>> recordedvalue("C#Cc1ccc(=O)n(CC(=O)c2cnn(Cc3ccccc3)c2C)n1")
"297 nM"
>>> recordedvalue("C#Cc1ccc(=O)n(CC(=O)c2cc(C)n(Cc3ccccc3)c2C)c1")
"89 nM"
>>> recordedvalue("Cc1c(C(=O)Cn2ccc(Br)cc2=O)cnn1Cc1ccccc1")
"4400 nM"
>>> recordedvalue("C=Cc1ccc(=O)n(CC(=O)c2cnn(Cc3ccccc3)c2C)c1")
"150 nM"
>>> recordedvalue("C#Cc1ccn(CC(=O)c2cnn(Cc3ccccc3)c2C)c(=O)c1")
"3600 nM"
>>> recordedvalue("COc1cc(Br)cn(CC(=O)c2cnn(Cc3ccccc3)c2C)c1=O")
"694 nM"
>>> recordedvalue("Cc1c(C(=O)Cn2cc(Br)ccc2=O)cnn1Cc1ccccc1")
"11 nM"
>>> recordedvalue("Cc1cc(=O)n(CC(=O)c2cnn(Cc3ccccc3)c2C)cc1Br")
"395 nM"
